Data provenance: patent US20160264650A1

# measurement target: T1, Clostridium difficile toxin B, soluble full-length (TechLab) (Clostridium difficile, UniProt P18177 2-2366)
# T1 construct: also called tcdB
# T1 sequence (P18177 2-2366 limits assumed): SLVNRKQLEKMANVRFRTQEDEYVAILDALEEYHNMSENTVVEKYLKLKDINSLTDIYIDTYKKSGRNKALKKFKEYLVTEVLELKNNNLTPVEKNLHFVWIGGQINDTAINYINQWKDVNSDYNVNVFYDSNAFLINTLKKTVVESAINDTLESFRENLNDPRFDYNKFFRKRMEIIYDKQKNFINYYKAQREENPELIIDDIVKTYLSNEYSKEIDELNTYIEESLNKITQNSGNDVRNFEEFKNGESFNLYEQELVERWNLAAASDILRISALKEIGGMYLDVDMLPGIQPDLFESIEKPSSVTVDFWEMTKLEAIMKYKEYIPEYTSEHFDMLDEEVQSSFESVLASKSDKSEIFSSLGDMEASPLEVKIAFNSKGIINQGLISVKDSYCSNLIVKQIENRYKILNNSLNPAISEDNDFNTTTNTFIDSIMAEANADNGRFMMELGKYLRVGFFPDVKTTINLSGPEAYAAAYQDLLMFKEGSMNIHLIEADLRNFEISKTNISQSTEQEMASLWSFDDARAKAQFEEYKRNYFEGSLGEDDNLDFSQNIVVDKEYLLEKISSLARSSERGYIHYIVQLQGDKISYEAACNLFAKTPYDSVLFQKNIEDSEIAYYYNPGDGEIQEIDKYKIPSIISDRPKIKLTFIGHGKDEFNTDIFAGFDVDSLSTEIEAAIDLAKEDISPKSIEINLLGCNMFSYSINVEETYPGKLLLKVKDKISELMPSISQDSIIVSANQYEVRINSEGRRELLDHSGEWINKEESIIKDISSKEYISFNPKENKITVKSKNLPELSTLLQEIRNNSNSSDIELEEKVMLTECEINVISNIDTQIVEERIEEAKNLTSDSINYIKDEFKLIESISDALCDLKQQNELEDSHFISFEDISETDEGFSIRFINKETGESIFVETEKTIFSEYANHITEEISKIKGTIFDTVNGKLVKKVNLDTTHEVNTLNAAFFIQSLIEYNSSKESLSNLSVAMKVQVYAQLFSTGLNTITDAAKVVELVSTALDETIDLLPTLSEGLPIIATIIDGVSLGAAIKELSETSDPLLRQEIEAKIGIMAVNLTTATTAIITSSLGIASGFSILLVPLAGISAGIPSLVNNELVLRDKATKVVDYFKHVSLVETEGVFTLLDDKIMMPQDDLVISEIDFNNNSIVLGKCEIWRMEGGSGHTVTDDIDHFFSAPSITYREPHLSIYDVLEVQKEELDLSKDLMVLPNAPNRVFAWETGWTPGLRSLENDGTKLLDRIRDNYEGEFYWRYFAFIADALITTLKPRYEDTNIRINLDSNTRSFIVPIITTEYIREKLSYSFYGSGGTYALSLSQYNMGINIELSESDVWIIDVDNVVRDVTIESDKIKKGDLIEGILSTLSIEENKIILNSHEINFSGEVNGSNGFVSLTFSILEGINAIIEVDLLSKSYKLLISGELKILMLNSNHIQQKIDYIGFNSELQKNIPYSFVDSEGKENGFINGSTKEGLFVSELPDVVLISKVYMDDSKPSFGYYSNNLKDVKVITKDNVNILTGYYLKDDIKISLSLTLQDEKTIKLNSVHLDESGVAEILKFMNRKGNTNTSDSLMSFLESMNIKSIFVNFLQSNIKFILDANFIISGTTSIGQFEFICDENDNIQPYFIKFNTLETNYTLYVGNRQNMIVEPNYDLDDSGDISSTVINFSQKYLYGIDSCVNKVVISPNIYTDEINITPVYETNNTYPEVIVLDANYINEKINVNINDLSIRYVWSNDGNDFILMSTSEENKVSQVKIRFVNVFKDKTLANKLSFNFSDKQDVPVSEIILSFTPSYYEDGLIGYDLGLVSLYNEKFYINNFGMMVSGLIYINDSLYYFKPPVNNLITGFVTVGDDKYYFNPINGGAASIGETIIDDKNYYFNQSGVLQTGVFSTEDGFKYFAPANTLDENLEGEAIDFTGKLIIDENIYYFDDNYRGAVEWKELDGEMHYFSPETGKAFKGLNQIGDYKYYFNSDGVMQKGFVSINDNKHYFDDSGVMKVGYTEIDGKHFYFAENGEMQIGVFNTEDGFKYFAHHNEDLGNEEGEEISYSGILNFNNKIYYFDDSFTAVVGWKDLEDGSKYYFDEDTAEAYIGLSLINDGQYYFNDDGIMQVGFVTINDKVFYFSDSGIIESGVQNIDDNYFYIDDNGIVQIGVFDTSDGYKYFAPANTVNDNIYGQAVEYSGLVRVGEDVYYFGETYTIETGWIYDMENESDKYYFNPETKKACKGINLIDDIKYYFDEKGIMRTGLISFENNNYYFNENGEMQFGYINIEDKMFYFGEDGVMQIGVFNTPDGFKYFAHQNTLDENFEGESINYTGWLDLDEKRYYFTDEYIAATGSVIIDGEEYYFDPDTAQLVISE
# test method notes: SPR Biacore T200, 37C, mAb capture
measure: T½ (min)
Response body: numeric value in min, unit text excluded.

[ask] Specify reported T½ for the binder shown: H1H3343P (antibody, V domains shown) VH: EVQLVESGGGLVQPGGSLRLSCVASGFNFRIYAMSWVRQAPGKGPEWVSGISGSGDNTYYAASVKGRFTVSRDNSKNTLYLQMTSLRAEDTAVFYCARGWELLNYWGQGTLVTVSS VL: DIQMTQSPSSLSASVGDRVTITCRASLDIGNFLAWFQQKPGTAPKSLIYSASSLQTGVPSKFSGSGSGTDFTLTISSLQPEDFATYYCQQYNSYPPTFGPGTKVDIKR
[reply] 26

[ask] Provide only the value of recorded T½ for H1H3337P (antibody, V domains shown) VH: EVQLVESGGGLVQPGGSLRLSCAASGFTFSIYAMSWVRQAPGKGLEWVSGISGSGGRTYYADSVKGRFTISRDNSKNTLYLQMNSLRVEDTAVYYCARGWELLNFWGQGTLVTVSS VL: DIQMTQSPSSLSASVGDRVTITCRASQGISNNLAWFQQKPGKAPKSLIYAASSLKSGVPSKFSGSGSGTDFTLTINSLQPEDFATYYCHQYNSYPPTFGPGTKVDIKR
[reply] 12

[ask] Give a short answer stating reported T½ for H1H3347P (antibody, V domains shown) VH: EVQLVESGGGLVQPGGSLRLSCVASGFTFTSYAMSWVRQAPGRGLQWVSAIGGSGDSIYYADSVKGRFTISRDNSKNTLYLQMDSLRAEDTAVYYCARGWELLNYWGQGTLVTVSS VL: DIQMTQSPSSLSASVGDRVTITCRASQDIGNFLAWFQQKPGKAPKSLIYAASSLKSGVPSKISGSGSGTDFTLTINSLQPEDFATYYCQQYNIYPPTFGPGTKVDIKR .
[reply] 14

[ask] Report measured T½; entry is H1H3411P (antibody, V domains shown) VH: EVQLVESGGGLVQPGGSLRLSCAASGFTFSRYGMNWVRQAPGKGLEWVSAISGSGGSTYHADSVKGRFTISRDNSKNTLYLQMNSLRAADTAIYFCASYNWNDGVDVWGQGTTVTVS VL: DIQMTQSPSSVSASIGDRVTITCRASQGISNWLAWYQQKPGKAPKLLIYGASSLQSGVSSRFSGSGSGTDFTLTIISLQPEDFATYYCQQANSFPYTFGQGTKLEIKR
[reply] 73

[ask] Tell us which T½ value is on record for H1H3401P (antibody, V domains shown) VH: QVQLVESGGGVVQPGRSLRLSCEASGFTFSSYGMHWVRQAPGNGLEWIAVISSDGNNKYYIESVKGRFTMSRDNSKNTLYLQLNSLRTEDTAVYYCATYNWNDDGDGVFDYWGQGTLVTVSS VL: DIQMTQSPSSVSASVGDRVTITCRASQGISNWLAWYQQKPGKAPKLLIYGTSSLQSGVPSRFSGSGSGTDFTLTISSLQPEDFATYYCQQVKSFPYTFGQGTKLEIKR
[reply] 48
